The measured values listed here are drawn from ChEMBL document CHEMBL3784999.

Listing of recorded CC50 at 72 h by entry.
Protocol Text: Cytotoxicity against African green monkey Vero cells assessed as cell viability after 3 days by XTT assay
Format: cell-based
Assay Context: chlorocebus sabaeus

{"columns": ["Smiles Str", "CC50 at 72 h"],
 "data": [
  ["CCCCCC#Cc1c[nH]c(=O)nc1N", "> 200 µg/mL"],
  ["CCCCCCCCCCCC#Cc1c[nH]c(=O)nc1N", "> 200 µg/mL"],
  ["Nc1nc(=O)[nH]cc1C#Cc1ccccc1", "> 200 µg/mL"],
  ["CCCCCCCCCCCCC#Cc1c[nH]c(=O)nc1N", "> 200 µg/mL"],
  ["CCCCCCCCC#Cc1c[nH]c(=O)nc1N", "> 200 µg/mL"]
]}
